- target-of-assay: TRAP1 enzyme (Homo sapiens, UniProt Q12931)
- Sequence (Q12931 60-704): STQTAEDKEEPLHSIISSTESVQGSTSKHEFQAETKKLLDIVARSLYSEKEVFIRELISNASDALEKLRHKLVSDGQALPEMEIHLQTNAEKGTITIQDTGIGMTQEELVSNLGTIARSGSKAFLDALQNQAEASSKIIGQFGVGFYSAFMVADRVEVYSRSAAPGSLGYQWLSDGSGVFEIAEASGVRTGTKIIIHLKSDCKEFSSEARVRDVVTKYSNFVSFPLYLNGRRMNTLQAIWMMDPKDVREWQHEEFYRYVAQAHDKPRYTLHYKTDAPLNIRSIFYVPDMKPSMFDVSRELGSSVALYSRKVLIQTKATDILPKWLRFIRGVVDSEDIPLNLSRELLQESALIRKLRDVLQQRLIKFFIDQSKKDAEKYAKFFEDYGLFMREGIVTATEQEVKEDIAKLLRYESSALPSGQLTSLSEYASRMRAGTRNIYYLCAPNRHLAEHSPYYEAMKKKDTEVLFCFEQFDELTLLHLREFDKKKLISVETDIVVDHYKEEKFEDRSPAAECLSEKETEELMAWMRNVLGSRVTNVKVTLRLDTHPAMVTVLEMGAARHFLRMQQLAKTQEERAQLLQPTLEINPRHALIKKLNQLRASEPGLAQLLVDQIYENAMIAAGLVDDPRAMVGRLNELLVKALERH
- assay-comment: Malachite green phosphate assay of TRAP1 ATPase activity
- Assay type: biochemical
- test-context: read-out: Malachite Green Fluor DRC: Mean Emax
- Description: The Potency of test compounds to modulate the ATPase activity of TRAP1 enzyme was evaluated using malachite green phosphatase assay. The assay is based on quantification of the green complex formed between Malachite Green, molybdate and inorganic phosphate generated in the phosphatase reaction. Assays were performed using a Malachite Green assay kit. […] The reaction was stopped by adding 12% H2SO4 and the plate was read for fluorescence at 620 nm (λex=573 nm). […]
attribute-measured: Emax

Task: Return Emax measured with TRAP1 enzyme (Homo sapiens, UniProt Q12931) given this compound: COc1ccc(NC(=O)c2cnc[nH]2)cc1S(=O)(=O)N(CCCCCCO)c1ccc(Br)cc1 [Compound 246]
Output: 200 to 300%

Task: Return Emax measured with TRAP1 enzyme (Homo sapiens, UniProt Q12931) given this compound: COc1ccc(NC(=O)c2ncc(-c3ccccc3)o2)cc1S(=O)(=O)Nc1c(Cl)cccc1Cl [Compound 451]
Output: 123 to 159%

Task: Return Emax measured with TRAP1 enzyme (Homo sapiens, UniProt Q12931) given this compound: COc1ccc(NC(=O)c2cnc(-c3ccccc3)[nH]2)cc1S(=O)(=O)Nc1ccc(Cl)cc1 [Compound 404]
Output: 160 to 199%

Task: Return Emax measured with TRAP1 enzyme (Homo sapiens, UniProt Q12931) given this compound: COc1ccc(NC(=O)c2cnccc2C(C)C)cc1S(=O)(=O)Nc1ccc(Br)cc1 [Compound 493]
Output: 160 to 199%

Task: Return Emax measured with TRAP1 enzyme (Homo sapiens, UniProt Q12931) given this compound: Cc1ccc(NS(=O)(=O)c2cc(NC(=O)c3ncc(-c4ccccc4)o3)ccc2CC(=O)O)cc1 [Compound 541]
Output: 200 to 300%

Task: Return Emax measured with TRAP1 enzyme (Homo sapiens, UniProt Q12931) given this compound: COc1ccc(NC(=O)c2cnc(C(F)(F)F)[nH]2)cc1S(=O)(=O)N(CCCCCCO)c1ccc(Br)cc1 [Compound 257]
Output: > 300%

Task: Return Emax measured with TRAP1 enzyme (Homo sapiens, UniProt Q12931) given this compound: CN(c1ccc(Br)cc1)S(=O)(=O)c1cc(NC(=O)c2cnc[nH]2)ccc1OCCCCCCO [Compound 342]
Output: 200 to 300%

Task: Return Emax measured with TRAP1 enzyme (Homo sapiens, UniProt Q12931) given this compound: COc1ccc(NC(=O)c2cccn2-c2ccccc2)cc1S(=O)(=O)Nc1c(C)cccc1C [Compound 1042]
Output: 160 to 199%

Task: Return Emax measured with TRAP1 enzyme (Homo sapiens, UniProt Q12931) given this compound: COc1ccc(NC(=O)c2ncco2)cc1S(=O)(=O)N(CCCCCCO)c1ccc(Br)cc1 [Compound 255]
Output: 160 to 199%

Task: Return Emax measured with TRAP1 enzyme (Homo sapiens, UniProt Q12931) given this compound: O=C(Nc1ccc(OC(F)(F)F)c(S(=O)(=O)Nc2c(Cl)cccc2Cl)c1)c1cnc(-c2ccccc2)o1 [Compound 655]
Output: 160 to 199%

Task: Return Emax measured with TRAP1 enzyme (Homo sapiens, UniProt Q12931) given this compound: COc1ccc(NC(=O)c2ccccc2C(F)(F)F)cc1S(=O)(=O)N1CCCCC1 [Compound 41]
Output: 160 to 199%

Task: Return Emax measured with TRAP1 enzyme (Homo sapiens, UniProt Q12931) given this compound: COc1ccc(NC(=O)c2cnc(C(F)(F)F)[nH]2)cc1S(=O)(=O)N(CCCCCCBr)c1ccc(Br)cc1 [Compound 262]
Output: 200 to 300%

Task: Return Emax measured with TRAP1 enzyme (Homo sapiens, UniProt Q12931) given this compound: COc1ccc(NC(=O)c2cnc[nH]2)cc1S(=O)(=O)N(CCOCCOCC[P+](c1ccccc1)(c1ccccc1)c1ccccc1)c1ccc(Br)cc1 [Compound 296]
Output: 200 to 300%

Task: Return Emax measured with TRAP1 enzyme (Homo sapiens, UniProt Q12931) given this compound: COc1ccc(NC(=O)c2cnc(-c3ccccc3)[nH]2)cc1S(=O)(=O)Nc1ccc(N=[N+]=[N-])cc1 [Compound 380]
Output: 160 to 199%

Task: Return Emax measured with TRAP1 enzyme (Homo sapiens, UniProt Q12931) given this compound: COc1ccc(NC(=O)c2ncco2)cc1S(=O)(=O)Nc1ccc(C)cc1 [Compound 307]
Output: 160 to 199%

Task: Return Emax measured with TRAP1 enzyme (Homo sapiens, UniProt Q12931) given this compound: COc1ccc(NC(=O)c2nccs2)cc1S(=O)(=O)Nc1ccc(Cl)cc1 [Compound 349]
Output: 200 to 300%

Task: Return Emax measured with TRAP1 enzyme (Homo sapiens, UniProt Q12931) given this compound: COc1ccc(NC(=S)c2ncco2)cc1S(=O)(=O)Nc1ccc(Cl)cc1 [Compound 598]
Output: 200 to 300%

Task: Return Emax measured with TRAP1 enzyme (Homo sapiens, UniProt Q12931) given this compound: COc1ccc(NC(=O)c2ncc(-c3ccccc3)o2)cc1S(=O)(=O)Nc1c(C)cccc1C [Compound 423]
Output: 160 to 199%

Task: Return Emax measured with TRAP1 enzyme (Homo sapiens, UniProt Q12931) given this compound: COc1ccc(NC(=O)c2cnc(-c3ccccc3)[nH]2)cc1S(=O)(=O)Nc1ccncc1 [Compound 213]
Output: 160 to 199%

Task: Return Emax measured with TRAP1 enzyme (Homo sapiens, UniProt Q12931) given this compound: COc1ccc(NC(=O)c2cnc(C(F)(F)F)[nH]2)cc1S(=O)(=O)Nc1ccc(-c2ccccc2)cc1 [Compound 353]
Output: 200 to 300%

Task: Return Emax measured with TRAP1 enzyme (Homo sapiens, UniProt Q12931) given this compound: COc1ccc(NC(=O)c2nnc(-c3ccccc3)o2)cc1S(=O)(=O)Nc1c(Cl)cccc1Cl [Compound 469]
Output: 160 to 199%

Task: Return Emax measured with TRAP1 enzyme (Homo sapiens, UniProt Q12931) given this compound: COc1ccc(NC(=O)c2oc(C(F)(F)F)nc2C)cc1S(=O)(=O)Nc1ccc(Br)cc1 [Compound 315]
Output: 160 to 199%

Task: Return Emax measured with TRAP1 enzyme (Homo sapiens, UniProt Q12931) given this compound: COc1ccc(NC(=O)c2cnc(C(F)(F)F)[nH]2)cc1S(=O)(=O)Nc1ccc(Br)cc1 [Compound 105]
Output: 200 to 300%

Task: Return Emax measured with TRAP1 enzyme (Homo sapiens, UniProt Q12931) given this compound: Cc1ccc(NS(=O)(=O)c2cc(NC(=O)c3cnc(C(F)(F)F)[nH]3)ccc2F)cc1 [Compound 278]
Output: 160 to 199%

Task: Return Emax measured with TRAP1 enzyme (Homo sapiens, UniProt Q12931) given this compound: COc1ccc(NC(=O)c2cnc[nH]2)cc1S(=O)(=O)N(CCCCCCN)c1ccc(Br)cc1 [Compound 266]
Output: 160 to 199%

Task: Return Emax measured with TRAP1 enzyme (Homo sapiens, UniProt Q12931) given this compound: CCc1ccc(NC(=O)c2cnc(C(F)(F)F)[nH]2)cc1S(=O)(=O)Nc1ccc(C)cc1 [Compound 270]
Output: 200 to 300%

Task: Return Emax measured with TRAP1 enzyme (Homo sapiens, UniProt Q12931) given this compound: COc1ccc(NC(=O)c2ncc(-c3ccccc3)o2)cc1S(=O)(=O)Nc1ccc(Cl)cc1 [Compound 369]
Output: 160 to 199%

Task: Return Emax measured with TRAP1 enzyme (Homo sapiens, UniProt Q12931) given this compound: COc1ccc(NC(=O)c2cnc(C(F)(F)F)[nH]2)cc1S(=O)(=O)N(CCCCN1CCCC1)c1ccc(Br)cc1 [Compound 437]
Output: 160 to 199%

Task: Return Emax measured with TRAP1 enzyme (Homo sapiens, UniProt Q12931) given this compound: COc1ccc(NC(=O)c2nccs2)cc1S(=O)(=O)Nc1ccc(F)cc1 [Compound 345]
Output: 200 to 300%

Task: Return Emax measured with TRAP1 enzyme (Homo sapiens, UniProt Q12931) given this compound: COc1ccc(NC(=O)c2csc(-c3ccccc3)n2)cc1S(=O)(=O)Nc1ccc(Cl)cc1 [Compound 487]
Output: 160 to 199%

Task: Return Emax measured with TRAP1 enzyme (Homo sapiens, UniProt Q12931) given this compound: COc1ccc(NC(=O)c2cnc(-c3ccccc3)o2)cc1S(=O)(=O)Nc1ccc(Br)cc1 [Compound 185]
Output: 160 to 199%
